B1: HSP90AB1 (parent)
chain: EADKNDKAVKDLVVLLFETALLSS

Variants of: B1
Method Summary: protein stability index of a GFP-peptide fusion (GPS, HEK-293T) (PSI 1-6); higher = more stable;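 note: lentivirally expressed fusions sorted by FACS into six bins by GFP to DsRed ratio, PSI derived from sequencing read proportions per bin multiplied by bin number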
Measurement Conditions: c terminus: a fixed tail appended
// label = yes (1) if protein stability index is not less than 2, otherwise no (0)

Identify whether the reported protein stability index of the following variant is 2 or greater: V9P yes (1)

Now try L15C . yes (1)

Now try F17Q . yes (1)

Now try L21N . yes (1)

Now try L21T . yes (1)

Now try A2W . no (0)

Now try D11H . yes (1)

Now try K10F . yes (1)

Further cases:
Identify whether the reported protein stability index of the following variant is 2 or greater: L15R yes (1)

Now try D6F . yes (1)

Now try D11T . yes (1)

Now try S24R . no (0)

Now try A8C . yes (1)

Now try E1W . yes (1)

Now try S24E . no (0)

Now try K7P . yes (1)

Now try A2H . yes (1)

Now try T19P . no (0)

Reference source for all entries: the supplement of paper PMC10567573
